Assign Avg TG (Average Triglycerides Normalized to Pre-Treatment and Control) to each entry below.
- System: ANGPTL3 gene
- Method Summary: Example 4: serum triglycerides in mice
- Format: in vivo
- Condition Summary: Day 43, 1.0 mg/kg single subcutaneous dose on day 1, female C57bl/6 mice
In the oligonucleotide strings, read from the 5' end, every base follows the letter of its sugar. An asterisk marks phosphorothioate; unmarked linkages are phosphodiester. Other units and linkages are bracketed, terminal groups are in braces. A string of capitals states the bases alone. {NAG37} = tridentate N-acetyl-galactosamine targeting ligand, structure (NAG37)s; [invAb] = inverted abasic unit; m = 2'-O-methyl; f = 2'-fluoro
The response must contain the number and no unit.

**Q:** Entry AD05418: RNAi agent duplex: antisense AM07159-AS, sense AM07158-SS (antisense mU*fU*mU*fGmAfAmUfUmAfAmUfGmUfCmCfAmUfGmGfG*mU; sense {NAG37}*[invAb]*mAmCmCmCmAmUmGmGfAfCfAmUmUmAmAmUmUmCmAmAmA*[invAb]) , system ANGPTL3 gene: what Avg TG (Average Triglycerides Normalized to Pre-Treatment and Control) was measured?
**A:** 0.892

**Q:** Enter reported Avg TG (Average Triglycerides Normalized to Pre-Treatment and Control) observed with ANGPTL3 gene for AD05488: RNAi agent duplex: antisense AM07235-AS, sense AM07234-SS (antisense mU*fA*mC*fUmGfAmUfCmAfAmAfUmAfUmGfUmUfGmAfG*mC; sense {NAG37}*[invAb]*mGmCmUmCmAmAmCmAfUfAfUmUmUmGmAmUmCmAmGmUmA*[invAb])
**A:** 0.901

**Q:** Requested read-out Avg TG (Average Triglycerides Normalized to Pre-Treatment and Control), target or system ANGPTL3 gene, entry AD05308: RNAi agent duplex: antisense AM07003-AS, sense AM07002-SS (chain 1 mU*fG*mU*fUmGfAmAfUmUfAmAfUmGfUmCfCmAfUmGfG*mA; chain 2 {NAG37}*[invAb]*mUmCmCmAmUmGmGmAfCfAfUmUmAmAmUmUmCmAmAmCmA*[invAb])
**A:** 0.994

**Q:** Quick check: Avg TG (Average Triglycerides Normalized to Pre-Treatment and Control) on ANGPTL3 gene, item AD05487: RNAi agent duplex: antisense AM07233-AS, sense AM07232-SS (antisense mU*fA*mC*fUmGfAmUfCmAfAmAfUmAfUmGfUmUfGmAfG*mU; sense {NAG37}*[invAb]*mAmCmUmCmAmAmCmAfUfAfUmUmUmGmAmUmCmAmGmUmA*[invAb]) ?
**A:** 0.757

* * *

- Tested on: ANGPTL3 protein
- Method Summary: Example 7: serum ANGPTL3 protein by ELISA in mice
- Format: in vivo, C57bl/6 mice
- Set-up: key: ratio: (level/pre-treatment day -1 level) ÷ mean of D5W control group
- Condition Summary: Day 8, 0.5 mg/kg single SC injection on day 1, n=3
In the oligonucleotide strings, read from the 5' end, every base follows the letter of its sugar. An asterisk marks phosphorothioate; unmarked linkages are phosphodiester. Other units and linkages are bracketed, terminal groups are in braces. A string of capitals states the bases alone. {NAG37} = tridentate N-acetyl-galactosamine targeting ligand, structure (NAG37)s; [invAb] = inverted abasic unit; m = 2'-O-methyl; f = 2'-fluoro
Answer each item with its documented Avg ANGPTL3, normalized to pre-treatment and control.

**Q:** If you can, please state the reported Avg ANGPTL3, normalized to pre-treatment and control value of AD05777: RNAi agent duplex: antisense AM07235-AS, sense AM07610-SS (antisense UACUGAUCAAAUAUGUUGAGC; sense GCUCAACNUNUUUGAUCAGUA; (NAG37)s GalNAc ligand; RNAi agent antisense strand modified sequence; RNAi agent sense strand modified sequence; modified_base 8, 10 n = 2′-O-methyl-2-aminoadenosine-3′-phosphate) .
**A:** 0.297

**Q:** Entry AD05775: RNAi agent duplex: antisense AM07235-AS, sense AM07608-SS (antisense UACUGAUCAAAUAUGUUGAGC; sense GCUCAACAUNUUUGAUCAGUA; (NAG37)s GalNAc ligand; RNAi agent antisense strand modified sequence; RNAi agent sense strand modified sequence; modified_base 10 n = 2′-O-methyl-2-aminoadenosine-3′-phosphate) has what Avg ANGPTL3, normalized to pre-treatment and control?
**A:** 0.247

**Q:** Quick check: Avg ANGPTL3, normalized to pre-treatment and control of AD05488: RNAi agent duplex: antisense AM07235-AS, sense AM07234-SS (antisense mU*fA*mC*fUmGfAmUfCmAfAmAfUmAfUmGfUmUfGmAfG*mC; sense {NAG37}*[invAb]*mGmCmUmCmAmAmCmAfUfAfUmUmUmGmAmUmCmAmGmUmA*[invAb]) ?
**A:** 0.339

**Q:** For the substance shown here, AD05308: RNAi agent duplex: antisense AM07003-AS, sense AM07002-SS (chain 1 mU*fG*mU*fUmGfAmAfUmUfAmAfUmGfUmCfCmAfUmGfG*mA; chain 2 {NAG37}*[invAb]*mUmCmCmAmUmGmGmAfCfAfUmUmAmAmUmUmCmAmAmCmA*[invAb]) , give the reported Avg ANGPTL3, normalized to pre-treatment and control.
**A:** 0.447

**Q:** Please look up its Avg ANGPTL3, normalized to pre-treatment and control: AD05418: RNAi agent duplex: antisense AM07159-AS, sense AM07158-SS (antisense mU*fU*mU*fGmAfAmUfUmAfAmUfGmUfCmCfAmUfGmGfG*mU; sense {NAG37}*[invAb]*mAmCmCmCmAmUmGmGfAfCfAmUmUmAmAmUmUmCmAmAmA*[invAb])
**A:** 0.534

* * *

- System: ANGPTL3 gene
- Method Summary: Example 7: serum total cholesterol in mice
- Type: in vivo, C57bl/6 mice
- Parameters: key: ratio: (level/pre-treatment day -1 level) ÷ mean of D5W control group
- Condition Summary: Day 8, 0.5 mg/kg single SC injection on day 1, n=3
In the oligonucleotide strings, read from the 5' end, every base follows the letter of its sugar. An asterisk marks phosphorothioate; unmarked linkages are phosphodiester. Other units and linkages are bracketed, terminal groups are in braces. A string of capitals states the bases alone. {NAG37} = tridentate N-acetyl-galactosamine targeting ligand, structure (NAG37)s; [invAb] = inverted abasic unit; m = 2'-O-methyl; f = 2'-fluoro
I'd be grateful if you could share measured Avg Total Chol, normalized to pre-treatment and control for these entries.

**Q:** For the substance shown here, AD05308: RNAi agent duplex: antisense AM07003-AS, sense AM07002-SS (chain 1 mU*fG*mU*fUmGfAmAfUmUfAmAfUmGfUmCfCmAfUmGfG*mA; chain 2 {NAG37}*[invAb]*mUmCmCmAmUmGmGmAfCfAfUmUmAmAmUmUmCmAmAmCmA*[invAb]) , give the reported Avg Total Chol, normalized to pre-treatment and control.
**A:** 0.756

**Q:** Look up Avg Total Chol, normalized to pre-treatment and control: AD05777: RNAi agent duplex: antisense AM07235-AS, sense AM07610-SS (antisense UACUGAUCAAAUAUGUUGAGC; sense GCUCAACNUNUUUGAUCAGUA; (NAG37)s GalNAc ligand; RNAi agent antisense strand modified sequence; RNAi agent sense strand modified sequence; modified_base 8, 10 n = 2′-O-methyl-2-aminoadenosine-3′-phosphate)
**A:** 0.797

**Q:** # query: Avg Total Chol, normalized to pre-treatment and control of entry AD05488: RNAi agent duplex: antisense AM07235-AS, sense AM07234-SS (antisense mU*fA*mC*fUmGfAmUfCmAfAmAfUmAfUmGfUmUfGmAfG*mC; sense {NAG37}*[invAb]*mGmCmUmCmAmAmCmAfUfAfUmUmUmGmAmUmCmAmGmUmA*[invAb])
**A:** 0.802

**Q:** Could you share which Avg Total Chol, normalized to pre-treatment and control value was measured for AD05775: RNAi agent duplex: antisense AM07235-AS, sense AM07608-SS (antisense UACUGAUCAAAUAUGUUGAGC; sense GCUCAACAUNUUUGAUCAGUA; (NAG37)s GalNAc ligand; RNAi agent antisense strand modified sequence; RNAi agent sense strand modified sequence; modified_base 10 n = 2′-O-methyl-2-aminoadenosine-3′-phosphate) ?
**A:** 0.794

* * *

- Tested on: ANGPTL3 gene
- Method Summary: Example 7: serum HDL in mice
- Format: in vivo
- Design: key: ratio: (level/pre-treatment day -1 level) ÷ mean of D5W control group
- Condition Summary: Day 22; 0.5 mg/kg single SC injection day 1; female C57bl/6 mice, n=3; ratio to D5W control
In the oligonucleotide strings, read from the 5' end, every base follows the letter of its sugar. An asterisk marks phosphorothioate; unmarked linkages are phosphodiester. Other units and linkages are bracketed, terminal groups are in braces. A string of capitals states the bases alone. {NAG37} = tridentate N-acetyl-galactosamine targeting ligand, structure (NAG37)s; [invAb] = inverted abasic unit; m = 2'-O-methyl; f = 2'-fluoro
Endpoint Name: Avg HDL, normalized to pre-treatment and control
Respond using a number only.

**Q:** Report Avg HDL, normalized to pre-treatment and control for AD05308: RNAi agent duplex: antisense AM07003-AS, sense AM07002-SS (chain 1 mU*fG*mU*fUmGfAmAfUmUfAmAfUmGfUmCfCmAfUmGfG*mA; chain 2 {NAG37}*[invAb]*mUmCmCmAmUmGmGmAfCfAfUmUmAmAmUmUmCmAmAmCmA*[invAb]) please.
**A:** 0.846
